assay: folding stability dG unfold from chymotrypsin proteolysis; higher = more stable
Output yes (1) for folding stability dG unfold not less than 2 kcal/mol; output no (0) otherwise.

Sequence content	Label class
SAKEPVYLVRIRVEIYKDGKPVKELEIEVEVEEGETLEEVLERLREELEKKGYKIVKVEIEVRKLPPPESAG [r14_979_TrROS_Hall]	yes (1)
SAGGSAGGSAKPKLHIHILTAGPFEELAELLEELAKRIFPPELEIDIHIHYIPKELLHPELGSAGGSAGGSA [r18_498_TrMRF]	yes (1)
SAMKVYIAASSPEEIEGWIEEARKAGIDGPELIFVSPDDRVYKAEIIPNTGEVKIEPVKPIEELLKELPSAG [r14_913_TrMRF]	no (0)
SAGGSAGGSATITITVDGKTITLEVPEDSEVEIVFDEKTGKLFIKDKKTNKVYEVSLEELLSAGGSAGGSAG [r3_137_TrROS_Hall]	yes (1)
SRIKISIFRPGKIIPEIPIKVDSVEEAVEKVLEYIRKFPPNAPYYIMIEVEHTDPANGQKQEGTVHIPIKSA [r9_245_TrROS]	yes (1)
SAKIEINPEGGQIEMDYELNGKKVKITIQMPPENGMFPVKIEPPDLGKPIEVPYPFNSVDDMLDWAAEASAG [r14_803_TrROS]	no (0)
SAGGSATIEEKIRNIAKEQGFPVTDVQVRRTPGKVYIMFQAKDPRMYYIEIDNDKIKIMPAEDIKPSAGGSA [r15_901_TrROS]	no (0)
SAGRLTTELGDVKAEVFRIPNLNLSLVVYEYPTSVRTLLATEHGDTVTIHPLTETPLPLPPLSDLKSLSAGG [r19_328_TrMRF]	no (0)
SMKIVKIEIEKIEIYSDEEFAKKTGIKPEAIYKNGKKKKVIKIPVKITLYDEKKGEKKEFEAEITIVIDVSA [r9_382_TrMRF]	yes (1)
SAGGSAGGSAGGSMIVERKPAPGGPRVEITIEIPDPTSDVPIIKKLVAEVLEDGSIVKASAGGSAGGSAGGS [r4_448_JUSTAS]	no (0)
SAGGSAKKKKKKKKKKKKKKEKKEVVIVIKAKSKEEAEKAVKKLLEELQKKYNIPLPKNVKVIILPSAGGSA [r15_496_TrROS_Hall]	yes (1)
SAGGSAGGGPPSPVQTSTTSFSVSGDSSVTNVTVVTLPDGSLLVETTVFPSSGGSVSSLSSIPASAGGSAGG [r6_670_JUSTAS]	no (0)
SKNYPIRISIFQRNPNGNPQTVTYPIPVDAAKELKDAGFEVKDVDPDSGMIMVKFPMPNYPVYIMISIEDSA [r9_5_TrROS]	yes (1)
SAGKKKVLLAVDPENNALVLVEYETVGDVTFVRSLVFHGNTTTETLGLVRVIEPGKTEKLLISVPIPPSAGG [r19_292_TrMRF]	yes (1)
SAGGSAGGSAGEKTIKIKVKDKNGKTKTITLKIKNAKFKPGQKIEIVKVNKNGSLEIKLKSAGGSAGGSAGG [r11_733_TrROS_Hall]	no (0)
SAGGSAGGSASMTVVVEREEITRRDPSSDELFEEEVVRATTTEKDGVIETTTLPEEEWEKLSSAGGSAGGSA [r18_406_JUSTAS]	no (0)
SAGSKEFPFESEFEFEGYRVKVEVKVRVEFDENGKPTKNFKPEIKIEIKPLPPKPVITAEEALKLDPEKSAG [r14_442_TrMRF]	no (0)
SPTIKASYDPETGVLTVYVKLRDPETGEPIPAEAVAAKIKELFPDAEILDIEPNPDGYVKITVKVAPDAVSA [r9_87_TrMRF]	yes (1)
SAGGSAGGSMIEYPELTLEELKAKFEAEGYTVEEEPPTNVVTLTPPDGTPITVTVTPVPESLLSAGGSAGGS [r12_211_JUSTAS]	no (0)
SAGGMPIYARIVLYPPETGKFSELEIEFPEFESPDEVVEAAKEIAEKLGGPIARIEIYDPKTGKPFPDSAGG [r13_771_TrMRF]	no (0)
SAGVEELFRRLGAEVSVTRRPDGSLVVTFRLPDGRTIVVFVTPDGVRVVVVDPSGERRTLSLEDLKRLASAG [r14_578_TrMRF]	yes (1)
PKIVEILDAKRTPDGSLVIKIKIEPPEPNVKIKVIVKTPNSFKVYEIDPTKTTLEITIPGNVTNPKIEVFGS [r1_428_TrMRF]	yes (1)
SAGMTAEELAEELAKELEVEVTLENGEKRRVRVEVKVERLPDGTLLLTAKVENEETGETFEIKIEIKLESAG [r5_397_TrROS_Hall]	yes (1)
SAGGSGPPVLVRLEVEVLGEPYTLTLPVPASLIHPSQRVRFRVRVVSVDPVNNRVTVRIESVELYPSAGGSA [r2_479_TrMRF]	yes (1)
SAGGSAPFVPPGFVKSVEEFEVTFPDGSKYRVTLIEVDGGPLVLVEKPGVGEPKTLPFEKLLELLASAGGSA [r15_329_TrMRF]	no (0)
SAGGSAGGSMPKKTYEFEIEYEDPEEAVEKAIREFEEETGEKIEEVEVEYDPEKGIVKITLVKSAGGSAGGS [r12_265_JUSTAS]	no (0)
SAKKTVKLKIEIYKVKVEKLKDGKEKITEVEKIAELEIEAEVDEDGKVTIRIDGKEIEVPAGTSLEELLSAG [r14_909_TrROS_Hall]	yes (1)

###

assay: folding stability dG unfold from trypsin proteolysis; higher = more stable
Readings of folding stability dG unfold for the listed sequences
Property label: folding stability dG unfold (kcal/mol)

Sequence content	Property label	Result value
SGVSVKVTVEGNTITIEVSADAKIKIEVTFPTKKATYEVEVEPGKPVTFTIPLPKDVPKDAFIDKIDIGGSA [r9_1152_TrMRF]	folding stability dG unfold	1.98
SEKPEFKIVKIEVVEVDEDGKTVKVRVVVEGPDGRLYEVEMTLEELKKLLEELGIDLEDIKPGDVIVIPPSA [r9_1078_TrROS_Hall]	folding stability dG unfold	3.75
SAGGSAGGSKKKKKKVKKKKVYRVKIKTKDGKLIEIEVSVEDLEKIKKAAEKAGFEIVEIEPVSAGGSAGGS [r12_891_TrROS_Hall]	folding stability dG unfold	2.39
SAGGIVEEAIKKLFESGIPLSEEEIKEIIEKAIKEENEKKGKKIEKIEIGEIKFNPETGYAPIKIKASAGGS [r16_365_TrMRF]	folding stability dG unfold	-0.383
SAGMKIRILILGKGDPAQVEALAKELEAKLKEELGTEDVEVETLPASLTEEAAEERAKEEKVDIVVYESAGG [r19_89_JUSTAS]	folding stability dG unfold	0.85
SMLEEVLERIEAMPPGSVVKVTLTFPDGTKRTETLKLSAEEVKEKLEKIKKENPDIKIEVKVEVYSTEEESA [r9_37_JUSTAS]	folding stability dG unfold	3.33
SKIEIDEFPWERNPDDGYATIQIKIKVRDPDKKKKDIPHEFPPGSSPDQFWDQIENRAQNNGIKDVEISWSA [r9_1203_TrROS]	folding stability dG unfold	0.0973

###

test: folding stability dG unfold from trypsin proteolysis; higher = more stable
Please mark Y if the recorded folding stability dG unfold is equal to or greater than 2 kcal/mol, and N if it falls below.

Sequence content	Label class
SMKITIVNKNGEKKEIEVTAKDGKKYKITVFKDKELVIKVEETTPDGKKKPVKVIKAKSLEEALEALKKASA [r9_942_TrROS_Hall]	Y
SAMRIVVPYRETLRLTGLPEDTPLEEFRERFERIFRRLMERGVRPVRIEIYEIGDERYIVVEIETPGGASAG [r14_158_TrMRF]	Y
SAGGSAGGSAGGKTLTLVFKTKEEAEEAAKKLGFKKVEVKEFKNEDGEKYLVVKIELKPSAGGSAGGSAGGS [r10_494_TrROS_Hall]	Y
SAGEEIERLLKEIEEAVRKAYPDKVVKVDLVKVELRPVLVVDPGTPRIEERTEIFLEVKVTVTHPDELSAGG [r19_293_TrMRF]	Y
SAGGSAGGSGDSITLPVSVPKGSELVIENLSTNKKVIIPDDGPVTITIDKGKDGLKISAEVEKSAGGSAGGS [r12_919_TrMRF]	N
SAGGGMTFNFTAPDGTPYEDVTTTPLPDGSTLVTVTQEDPKNPGVVTVTLIRLPSGADALEVTSGPVVSAGG [r13_370_JUSTAS]	N
SAGGSAGGSAKTITITFLFDSPENAKDFVREIAQEDGMKIKVEWERDPEGWWWVTATIEVPSAGGSAGGSAG [r3_273_TrROS]	Y
SAGGSAGGSMKYLVTFPEGGPVPLPDGTSVALAPGAVLELETEEEAEALKALNPGRPVVITPVSAGGSAGGS [r12_987_JUSTAS]	N
SAGGDLKIEIEPYRMGDYPMYEVKIEDPDGKDITLWMNSNNGQMMVFYPNGKPRRVDSAEDVLEALKSAGGS [r8_168_TrROS]	N
SAGGSAGGSAGGPWYVRIEYTPPNGNKETFIIPSPEEIDEWAEPFGVPVKIEPIPPGDPISAGGSAGGSAGG [r7_456_TrROS]	N
SAGSPSIVRTPSLTYDPDPRNPSTPRLRQASVTATNPNGETITFTFTSLEDMDAALNAWIAANPELLSSAGG [r19_123_JUSTAS]	N
SAGMTFKNPGSDKTLTYEPETGAITLHNGDSVSTLPLPPGTSFTVTVDPEKGVVTITVPETGATITLPLSAG [r5_858_JUSTAS]	N
SAGGSAGGSPWKKVKFKFMFPFPNYYVRISIEIWVNPGDNEIMIEMSIEIFPIPPGDNKAFKDSAGGSAGGS [r12_885_TrROS]	Y
SAGGSAGGSAGGKTYTLTFKAKIEVSEDDVVVITPPNGKKLVVPKENVKVHPDGTVTVTGSAGGSAGGSAGG [r7_684_TrMRF]	N
SAGGSAGGSAGGPTIVLKVSPEELKALEKAGVEIEKIEKNEDGELYITLTPEALKKAGFESAGGSAGGSAGG [r7_587_TrROS_Hall]	Y
SAGGSKIPLDNIKVITIMYNPKEGMYWISIRFPNNGKEVVFPYEDAPKILEKFPEIKEIEVYPFPPSAGGSA [r2_159_TrROS]	Y
SAGGSAGGSAGGMIVTLPKTGEVLLVPEEEIEAFLAALPESFPKEDVEVYEYSPEEEPLSAGGSAGGSAGGS [r10_13_JUSTAS]	N
SAGGSAGGSAVAEEFKKKFPDKTVTVEAFTFERTVTHPDGGSSTERVTVLNVTVSSSDDPGSAGGSAGGSAG [r3_358_TrMRF]	N
SAGGGMMVLKVSQPVLLLSTVTLPNGFPKFLPVSPLSLETTVTFTGSDQDAEELAAELKAQGATVTEESAGG [r13_452_JUSTAS]	N
SMKEPPKVTIEIEYDEETETVRVRITLEDGTEIEVEVEAENKEEALREAIREALKKIFPELTDEQIEKLLSA [r9_634_TrROS_Hall]	Y
SAGGSAGGYWKVEIKNGMTFSIPGMTLDEAKNHARWHGFPMPIDKIEIEPVKPPPPPPKDPDDQSAGGSAGG [r6_688_TrROS]	Y
SAGGSAGGSAMQRDPDGKPQPQVTFRIPADDMPEEQIKKHLPPEFADNFRDNMPEGDTITLSAGGSAGGSAG [r3_326_TrROS]	N
SAARVTVTYDPATNTVTVTVEVEVDGVTVTVTATVTFVDGRLVLTVTVEVRPPPPPPSAEQLAALRAAASAG [r14_930_TrROS_Hall]	Y
SAGMEKVKLTFKTEDGSEVEIEIVKNEDGSYFVKVKVDKENQEIYVFNADGELIEKIKVKSLEDALKALSAG [r5_757_TrROS_Hall]	N
SAGGSAGGSAGMEIEEEDGKLRLRLEAEFEVTVTTRNADGSTTETTARVRVELTFELPEESAGGSAGGSAGG [r17_103_TrROS_Hall]	Y
SAGGSAGGSAGGAPAAVESVEPLKIGDKEYLRITFPDGTTVTLPSSTPLSPDGQKLKPVPSAGGSAGGSAGG [r7_931_JUSTAS]	N

Source: the supplement of paper PMC12764529
